Reported viability, T/C values for a set of molecules
# Tested on: 556581-035-R-J1-PDC complex spheroid growth;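 note: spheroids exposed to agents for 7 days before viability read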
# measurement_protocol: Anticancer human tumor 556581-035-R-J1-PDC patient-derived ovarian carcinoma cell line growth inhibition [Asc]
# condition_set: second compound 0.0949 µM; first compound 1 µM; active compounds read low
Kindly answer with a numeric value in %, unit omitted.

molecule	viability, T/C [%]
C#Cc1c(F)ccc2cc(O)cc(-c3ncc4c(N5CC6CCC(C5)N6)nc(OCC56CCCN5CC(F)C6)nc4c3F)c12 (centres undefined) + CCN1C(C(=O)NC23CCC(C(=O)O)(CC2)CC3)C(c2cccc(Cl)c2F)C2(C(=O)Nc3cc(Cl)ccc32)C12CCCCC2	79.5
C=C(F)C(=O)N1CCN(c2nc(OCC3CCCN3C)nc3c2CCN(c2cccc4cccc(Cl)c24)C3)CC1CC#N (centres undefined) + CCN1C(C(=O)NC23CCC(C(=O)O)(CC2)CC3)C(c2cccc(Cl)c2F)C2(C(=O)Nc3cc(Cl)ccc32)C12CCCCC2	87.8
C=CC(=O)N1CCN(c2nc(=O)n(-c3c(C)ccnc3C(C)C)c3nc(-c4c(O)cccc4F)c(F)cc23)C(C)C1 (centres undefined) + CCN1C(C(=O)NC23CCC(C(=O)O)(CC2)CC3)C(c2cccc(Cl)c2F)C2(C(=O)Nc3cc(Cl)ccc32)C12CCCCC2	88

With those in mind, consider the next molecule.
Which viability, T/C value is on record for O=C(c1ccc(F)c(F)c1Nc1ccc(I)cc1F)N1CC(O)([C@@H]2CCCCN2)C1 + CCN1C(C(=O)NC23CCC(C(=O)O)(CC2)CC3)C(c2cccc(Cl)c2F)C2(C(=O)Nc3cc(Cl)ccc32)C12CCCCC2 ?
10.4

Hey, just so you know, these numbers are from PubChem BioAssay AID1963450.
